The measured values listed here are drawn from PubChem BioAssay (NCATS).

Assay: qHTS drug screen for cell cycle checkpoint inhibitors in PARPi-resistant BRCA-mutant ovarian cancer cell lines. (AID 1963452)
Conditions: PEO1/OlaR viability, CellTiter-Glo luminescence, 96 h; measured here: PEO1 parental Z-AUC; stronger effect = lower value
Excerpt: Women's Malignancies Branch, Center for Cancer Research (CCR), National Cancer Institute (NCI), National Institutes of Health (NIH), Bethesda, MD Poly (ADP-ribose) polymerase inhibitors (PARPis) have changed the treatment paradigm in breast cancer gene (BRCA) - mutant high-grade serous ovarian carcinoma (HGSC). […] 6; Detection; Luminescence, PHERAstar (BMG Labtech) plate reader. […] 6. Luminescence readings were taken using PHERAstar (BMG Labtech). […]
recorded.endpoint: Z-AUC

| compound | recorded.endpoint | assay.value |
| --- | --- | --- |
| N#Cc1c(C2CCNCC2)cc(-c2c(O)cccc2OCC2CC2)nc1N | Z-AUC | 0.598 |
| C=C(C)[C@@H]1CC[C@]2(C(=O)O)CC[C@]3(C)[C@H](CC[C@@H]4[C@@]5(C)CC[C@H](O)C(C)(C)[C@@H]5CC[C@]43C)[C@@H]12 | Z-AUC | 0.622 |
| COc1cc([C@@H]2c3cc4c(cc3[C@H](O)[C@H]3COC(=O)[C@@H]23)OCO4)cc(OC)c1OC | Z-AUC | -1.51 |
| C[C@H](NC(=O)Cc1cc(F)cc(F)c1)C(=O)N[C@H](C(=O)OC(C)(C)C)c1ccccc1 | Z-AUC | -0.43 |
| c1ccc(CNc2nc(NCc3ccccc3)c3ccccc3n2)cc1 | Z-AUC | -0.502 |
| COc1cc(C[C@@H](CO)[C@H](CO)Cc2ccc(O)c(OC)c2)ccc1O | Z-AUC | 0.526 |
| O=C1NC(O)CCN1[C@@H]1O[C@H](CO)[C@H](O)[C@H]1O (some centres not stated) | Z-AUC | -1.1 |
| FC(F)(F)c1ccc(Nc2nc3ccc(Oc4ccnc(-c5ncc(C(F)(F)F)[nH]5)c4)cc3[nH]2)cc1 | Z-AUC | -0.706 |
| CCN(C(=O)c1c(O)c2c(Cl)cccc2n(C)c1=O)c1ccccc1 | Z-AUC | -0.714 |
| COc1ccc(S(=O)(=O)Nc2cccnc2Nc2ccc(O)cc2)cc1 | Z-AUC | -1.73 |
| NC(=O)Nc1cc(-c2ccc(CN3CCOCC3)cc2)sc1C(N)=O | Z-AUC | 0.476 |
| COc1ccc(C[C@@H](C)[C@@H](C)Cc2ccc(OC)c(OC)c2)cc1OC | Z-AUC | -0.135 |
| CCNC(=O)c1cc2c(-c3cc(OCCN4CCCC4)c(Cl)cc3Cl)nc(N)nc2s1 | Z-AUC | -0.714 |
| CCc1c(O)cc(O)c(C(=O)c2ccc(OCCN3CCOCC3)c(OC)c2)c1CC(=O)N(CCOC)CCOC | Z-AUC | -0.538 |
| COc1cc(C)c(Sc2cnc(NC(=O)c3ccc(CNC(C)C(C)(C)C)cc3)s2)cc1C(=O)N1CCN(C(C)=O)CC1 (configuration not stated) | Z-AUC | -0.233 |
| Cn1cc(C[C@@H](N)C(=O)O)c2ccccc21 | Z-AUC | 1.01 |
| Cc1noc(-c2ccc(CSCCC(=O)O)cc2)c1NC(=O)OC(C)c1ccccc1Cl (configuration not stated) | Z-AUC | -0.869 |
